Source: PubChem BioAssay (NCI)

- Tested on: SK-MEL-5 melanoma
- assay-details: NCI tumour cell line growth inhibition, 48 h
*1 amine or outer side, *2 acyl side, *3 side chain or, on linkers, in order; H or OH if unused. Where a SMILES comes first, the peptide text is derived from it. The star is where a group is joined. γGlu = O=C(O)[CH](CCC(=O)[*:2])N[*:1]; NHOH = ON*
assay-metric: TGI

>>> df
                                    compound  assay_metric    result
 0  C=C(C)CC(C)(c1cc2ccccc2n1C)N1CCOCC1 (stereo not given)           TGI  > 100 µM
 1  NS(=O)(=O)c1nnc(NS(=O)(=O)c2ccc(Cl)cc2)s1           TGI  > 100 µM
 2  COc1cc([N+](=O)[O-])ccc1N1C(=O)C2c3[nH]c4ccccc4c3C3CCC(C(C)(C)C)CC3C2C1=O (stereo not given)           TGI  > 100 µM
 3          NC(=O)c1ncn(Cc2ccccc2)c1CNC(N)=S           TGI  > 100 µM
 4                Cn1ccoc1=Nc1ccc(Cl)c(Cl)c1           TGI   > 10 µM
 5  CCCCc1ccc(Nc2nc(Cl)c3ncn(C4CC(Oc5ccc(C)cc5)C(COc5ccc(C)cc5)O4)c3n2)cc1 (stereo not given)           TGI  > 100 µM
 6  O=C1NC(=O)C(c2c[nH]c3ccccc23)=C1c1ccccc1           TGI   > 25 µM
 7   O=c1oc2c/c(=C\c3ccccn3)c(=O)c3cccc1c3-2           TGI  > 100 µM
 8  c1ccc2c(c1)N=C(c1ccc3ccccc3c1)CC(c1cccc3ccccc13)S2 (stereo not given)           TGI  > 100 µM
 9  CCOC(=O)CNC(=O)C(CCC(=O)NO)NC(=O)CCC(N)C(=O)O (stereo not given) (γGlu-Glu(NHOH)-Gly-OEt; configuration not given here)           TGI  > 100 µM
10  Cc1ccc(N=NC(C2=NC(=O)CS2)c2nc3ccccc3[nH]2)cc1 (stereo not given)           TGI  > 100 µM
11  COC(=O)[C@@H]1COC(C(C)(C)C)N1C(=O)C(c1ccccc1)c1ccccc1 (stereo not given in full)           TGI  > 100 µM
12  CC1OC(OCC2OC(Oc3ccc(C4CC(=O)c5c(O)cc(O)cc5O4)cc3O)C(O)C(O)C2O)C(O)C(O)C1O (stereo not given)           TGI  > 100 µM
13  CCOC(=O)CC(NCc1ccc(N=Cc2nc3ccc(C(F)(F)F)cc3nc2-c2ccccc2)cc1)C(=O)OCC (stereo not given)           TGI  > 100 µM
14  Cc1ccc(S(=O)(=O)Oc2nc3nc4ccccc4nc3nc2OS(=O)(=O)c2ccc(C)cc2)cc1           TGI  > 100 µM
15  CC(C)(C)OC(=O)NC(CS(=O)(=O)O)C(=O)O (stereo not given)           TGI  > 100 µM
16           Cn1cnc2c1c(=O)n(CCNCCO)c(=O)n2C           TGI  > 100 µM
17  CC12CC(=O)C3C(CCC4=CC(=O)CCC43C)C1CC=C2CC(=O)O (stereo not given)           TGI  > 100 µM
18  c1c2c(cc3c1OCO3)-c1cc3ccc4c(c3c[n+]1CC2)OCO4           TGI    > 5 µM
19           COc1cccc(/C=C\c2ccnc3ccccc23)c1           TGI   > 10 µM
